system: M. abscessus (ATCC 19977); assay: MIC by broth microdilution, M. abscessus in cation adjusted Mueller Hinton broth; type: cell-based; settings: Mycobacteroides abscessus, ATCC19977, 96 h; ATCC 19977; cation adjusted Mueller Hinton broth without growth supplement; 30° C., 4 days; read-out: MIC M. abscessus MH
Each entry below carries its recorded log10 MIC.
Base-10 log of MIC, unit µg/mL.

CO[C@H]1/C=C/O[C@@]2(C)Oc3c(C)c(O)c4c(c3C2=O)C2=NC3(CCN(CC(C)C)CC3)NC2=C(NC(=O)/C(C)=C\C=C\[C@H](C)[C@H](O)[C@@H](C)[C@@H](O)[C@@H](C)[C@H](OC(=O)N2CCCN(c3ccc(F)cc3)CC2)[C@@H]1C)C4=O [Compound 16] : 0.30
CCCN1CCN(C(=O)O[C@H]2[C@H](C)[C@H](O)[C@H](C)[C@@H](O)[C@@H](C)/C=C/C=C(/C)C(=O)NC3=C4NC5(CCN(CC(C)C)CC5)N=C4c4c(c(O)c(C)c5c4C(=O)[C@@](C)(O/C=C/[C@H](OC)[C@H]2C)O5)C3=O)CC12CC2 [Compound 59] : -0.90
CO[C@H]1/C=C/O[C@@]2(C)Oc3c(C)c(O)c4c(c3C2=O)C2=NC3(CCN(CC(C)C)CC3)NC2=C(NC(=O)/C(C)=C\C=C\[C@H](C)[C@H](O)[C@@H](C)[C@@H](O)[C@@H](C)[C@H](OC(=O)N(C)C(C)C)[C@@H]1C)C4=O [Compound 83] : 0.30

Input: Please give the measured log10 MIC for this molecule: COCCN1CCN(C(=O)O[C@H]2[C@H](C)[C@H](O)[C@H](C)[C@@H](O)[C@@H](C)/C=C/C=C(/C)C(=O)NC3=C4NC5(CCN(CC(C)C)CC5)N=C4c4c(c(O)c(C)c5c4C(=O)[C@@](C)(O/C=C/[C@H](OC)[C@H]2C)O5)C3=O)CC1 [Compound 48]
Output: 0.00

Input: Please give the measured log10 MIC for this molecule: CO[C@H]1/C=C/O[C@@]2(C)Oc3c(C)c(O)c4c(c3C2=O)C2=NC3(CCN(CC(C)C)CC3)NC2=C(NC(=O)/C(C)=C\C=C\[C@H](C)[C@H](O)[C@@H](C)[C@@H](O)[C@@H](C)[C@H](OC(=O)N2CCN(CCO)CC2)[C@@H]1C)C4=O [Compound 43]
Output: 0.90

Input: Please give the measured log10 MIC for this molecule: CO[C@H]1/C=C/O[C@@]2(C)Oc3c(C)c(O)c4c(c3C2=O)C2=NC3(CCN(CC(C)C)CC3)NC2=C(NC(=O)/C(C)=C\C=C\[C@H](C)[C@H](O)[C@@H](C)[C@@H](O)[C@@H](C)[C@H](OC(=O)N2CCN(CCc3ccccc3)CC2)[C@@H]1C)C4=O [Compound 46]
Output: -0.30

* * *

system: A. baumannii (HUMC1 strain); test: MIC by broth microdilution, A. baumannii (RPMI + 10% FCS); format: cell-based; conditions: Acinetobacter baumannii; HUMC1 strain; RPMI medium + 10% FCS; 35° C., 20 hours; read-out: MIC A. baumannii
endpoint.label: MIC (µg/mL)
Answer in µg/mL, number only, no unit symbol.

CCCN1CCN(C(=O)O[C@H]2[C@H](C)[C@H](O)[C@H](C)[C@@H](O)[C@@H](C)/C=C/C=C(/C)C(=O)NC3=C4NC5(CCN(CC(C)C)CC5)N=C4c4c(c(O)c(C)c5c4C(=O)[C@@](C)(O/C=C/[C@H](OC)[C@H]2C)O5)C3=O)CC12CC2 : 0.03

Input: Please give the measured MIC for this compound: CO[C@H]1/C=C/O[C@@]2(C)Oc3c(C)c(O)c4c(c3C2=O)C2=NC3(CCN(CC(C)C)CC3)NC2=C(NC(=O)/C(C)=C\C=C\[C@H](C)[C@H](O)[C@@H](C)[C@@H](O)[C@@H](C)[C@H](OC(=O)N(C)C(C)C)[C@@H]1C)C4=O
Output: 0.016

* * *

A short record of MIC observed with M. kansasii (ATCC 12478) follows.
Answer in ng/mL, number only, no unit symbol.

CO[C@H]1/C=C/O[C@@]2(C)Oc3c(C)c(O)c4c(c3C2=O)C2=NC3(CCN(CC(C)C)CC3)NC2=C(NC(=O)/C(C)=C\C=C\[C@H](C)[C@H](O)[C@@H](C)[C@@H](O)[C@@H](C)[C@H](OC(=O)N2CCC(c3ccncc3)CC2)[C@@H]1C)C4=O : 0.5
CO[C@H]1/C=C/O[C@@]2(C)Oc3c(C)c(O)c4c(c3C2=O)C2=NC3(CCN(CC(C)C)CC3)NC2=C(NC(=O)/C(C)=C\C=C\[C@H](C)[C@H](O)[C@@H](C)[C@@H](O)[C@@H](C)[C@H](OC(=O)N2CCN(CC3CC3)CC2)[C@@H]1C)C4=O : 4
CO[C@H]1/C=C/O[C@@]2(C)Oc3c(C)c(O)c4c(c3C2=O)C2=NC3(CCN(CC(C)C)CC3)NC2=C(NC(=O)/C(C)=C\C=C\[C@H](C)[C@H](O)[C@@H](C)[C@@H](O)[C@@H](C)[C@H](OC(=O)N2CCN(CC3CCCCC3)CC2)[C@@H]1C)C4=O : 0.2
CO[C@H]1/C=C/O[C@@]2(C)Oc3c(C)c(O)c4c(c3C2=O)C2=NC3(CCN(CC(C)C)CC3)NC2=C(NC(=O)/C(C)=C\C=C\[C@H](C)[C@H](O)[C@@H](C)[C@@H](O)[C@@H](C)[C@H](OC(=O)N2CCN(c3ccccn3)CC2)[C@@H]1C)C4=O : 0.5

# ---- query compound ----
Input: Please give the measured MIC for this compound: CO[C@H]1/C=C/O[C@@]2(C)Oc3c(C)c(O)c4c(c3C2=O)C2=NC3(CCN(CC(C)C)CC3)NC2=C(NC(=O)/C(C)=C\C=C\[C@H](C)[C@H](O)[C@@H](C)[C@@H](O)[C@@H](C)[C@H](OC(=O)NC2CCN(Cc3ccccc3)CC2)[C@@H]1C)C4=O
Output: 0.5

* * *

Each entry below carries its recorded MIC.
system: A. baumannii (HUMC1 strain); assay: MIC by broth microdilution, A. baumannii (RPMI + 10% FCS); assay type: cell-based; details: Acinetobacter baumannii; HUMC1 strain; RPMI medium + 10% FCS; 35° C., 20 hours; read-out: MIC A. baumannii

Input: Please give the measured MIC for this molecule: CO[C@H]1/C=C/O[C@@]2(C)Oc3c(C)c(O)c4c(c3C2=O)C2=NC3(CCN(CC(C)C)CC3)NC2=C(NC(=O)/C(C)=C\C=C\[C@H](C)[C@H](O)[C@@H](C)[C@@H](O)[C@@H](C)[C@H](OC(=O)N2CCN(CCO)CC2)[C@@H]1C)C4=O
Output: ≤ 0.016 µg/mL

Input: Please give the measured MIC for this molecule: CO[C@H]1/C=C/O[C@@]2(C)Oc3c(C)c(O)c4c(c3C2=O)C2=NC3(CCN(CC(C)C)CC3)NC2=C(NC(=O)/C(C)=C\C=C\[C@H](C)[C@H](O)[C@@H](C)[C@@H](O)[C@@H](C)[C@H](OC(=O)N2CCC(N3CCCC3)CC2)[C@@H]1C)C4=O
Output: ≤ 0.016 µg/mL

Input: Please give the measured MIC for this molecule: CCCCN1CCC(NC(=O)O[C@H]2[C@H](C)[C@H](O)[C@H](C)[C@@H](O)[C@@H](C)/C=C/C=C(/C)C(=O)NC3=C4NC5(CCN(CC(C)C)CC5)N=C4c4c(c(O)c(C)c5c4C(=O)[C@@](C)(O/C=C/[C@H](OC)[C@H]2C)O5)C3=O)CC1
Output: ≤ 0.016 µg/mL

* * *

System: A. baumannii (HUMC1 strain)
Assay: MIC by broth microdilution, A. baumannii (RPMI + 10% FCS)
Type: cell-based
Details: Acinetobacter baumannii; HUMC1 strain; RPMI medium + 10% FCS; 35° C., 20 hours; read-out: MIC A. baumannii
Protocol: MIC values were determined by broth microdilution method according to the CLSI guidelines with the following exceptions: MIC against A. baumannii was performed in RPMI medium supplemented with 10% FCS and MIC against M. abscessus was performed in Middlebrook 7H9 broth supplemented with Middlebrook ADC growth supplement (10%; see column “M. abscessus 7H9”). […]
Each entry below carries its recorded MIC.

Known MIC results, listed for orientation:
CO[C@H]1/C=C/O[C@@]2(C)Oc3c(C)c(O)c4c(c3C2=O)C2=NC3(CCN(CC(C)C)CC3)NC2=C(NC(=O)/C(C)=C\C=C\[C@H](C)[C@H](O)[C@@H](C)[C@@H](O)[C@@H](C)[C@H](OC(C)=O)[C@@H]1C)C4=O : ≤ 2 ng/mL
CO[C@H]1/C=C/O[C@@]2(C)Oc3c(C)c(O)c4c(c3C2=O)C2=NC3(CCN(CC(C)C)CC3)NC2=C(NC(=O)/C(C)=C\C=C\[C@H](C)[C@H](O)[C@@H](C)[C@@H](O)[C@@H](C)[C@H](OC(=O)N2CCCC3(CCN(C)CC3)C2)[C@@H]1C)C4=O : ≤ 16 ng/mL

Input: Please give the measured MIC for this molecule: CO[C@H]1/C=C/O[C@@]2(C)Oc3c(C)c(O)c4c(c3C2=O)C2=NC3(CCN(CC(C)C)CC3)NC2=C(NC(=O)/C(C)=C\C=C\[C@H](C)[C@H](O)[C@@H](C)[C@@H](O)[C@@H](C)[C@H](OC(=O)N2CCN(CCN3CCCCC3)CC2)[C@@H]1C)C4=O
Output: ≤ 2 ng/mL

Taken from patent US20260234161A1.
